Attribution: patent US10160785B2

- Test system: Escherichia coli
- CONDITION CONTEXT: 37° C., 20 h
Quick list: Antimicrobial activity MIC E. c. per entry.
Express the result in µM but write the number alone.

Solved entries (count: 5):
H-GIMSSLMKKLKKIIKK-NH2 [VII] ... 22.0
H-GILSSLLKKLKKWIAK-NH2 [XVIII] ... 4.0
H-GIWSSLLKKLKKIIAK-NH2 [XIV] ... 1.6
H-GILSKLLKKLKKIIAK-NH2 [XI] ... 17.5
H-GILSSLLKKWKKIIAK-NH2 [XVI] ... 7.5

State the recorded Antimicrobial activity MIC E. c. for this entry: H-GILSSWLKKLKKIIAK-NH2 [XV]
11.0

State the recorded Antimicrobial activity MIC E. c. for this entry: H-GILKSLLKKLKKIIAK-NH2 [X]
10.0

State the recorded Antimicrobial activity MIC E. c. for this entry: H-Gly-Ile-Leu-Ser-Ser-Leu-Trp-Lys-Lys-Leu-Lys-Lys-Ile-Ile-Ala-Lys-NH2 (H-GILSSLWKKLKKIIAK-NH2; also: D-amino acids (positions not given here)) [XIX]
13.0

State the recorded Antimicrobial activity MIC E. c. for this entry: H-GIMSSLMKKLAAHIKK-NH2 [VIII]
20.0

State the recorded Antimicrobial activity MIC E. c. for this entry: H-KILSSLLKKLKKIIAK-NH2 [VI]
16.0

State the recorded Antimicrobial activity MIC E. c. for this entry: H-GILSSLWKKLKKWIAK-NH2 [XVII]
2.5
